system: Vero E6 infected with SARS-CoV-2; assay: inhibition of SARS-CoV-2 cytopathic effect; higher = more antiviral protection, active = above 15; conditions: 100 nM; 48 h
Task for the reader: assign each of the following molecules its reported inhibition of SARS-CoV-2 cytopathic effect.
One number for each entry, in %.

{"molecule": "COc1ccc(-c2oc3c(CC=C(C)C)c(O[C@@H]4O[C@H](CO)[C@@H](O)[C@H](O)[C@H]4O)cc(O)c3c(=O)c2O[C@@H]2O[C@@H](C)[C@H](O)[C@@H](O)[C@H]2O)cc1", "measurement_unit": "%", "reported_value": 1.25}
{"molecule": "Cc1c2oc3c(C)ccc(C(=O)N[C@@H]4C(=O)N[C@H](C(C)C)C(=O)N5CCC[C@H]5C(=O)N(C)CC(=O)N(C)[C@@H](C(C)C)C(=O)O[C@@H]4C)c3nc-2c(C(=O)N[C@@H]2C(=O)N[C@H](C(C)C)C(=O)N3CCC[C@H]3C(=O)N(C)CC(=O)N(C)[C@@H](C(C)C)C(=O)O[C@@H]2C)c(N)c1=O", "measurement_unit": "%", "reported_value": -3.53}
{"molecule": "CS(=O)(=O)N(Cc1ccco1)C[C@@H](O)Cn1c2ccccc2c2ccccc21", "measurement_unit": "%", "reported_value": -0.72}

Answer for every listed entry: what is its inhibition of SARS-CoV-2 cytopathic effect? The entries follow.
1. CC(C)(C)NCC(O)COc1cc(Cl)ccc1Cl (configuration not stated)
2. CC(=O)Nc1ccc(O)cc1
3. O=C(NCC1CCOCC1)c1cnc(Nc2ccc(Cl)cc2Cl)nc1C(F)(F)F
4. C=CC(=O)Nc1cccc(Nc2nc(Nc3ccc(Oc4ccnc(C(=O)NC)c4)cc3)ncc2F)c1
5. CC1(c2ccccc2)OC(C(=O)O)=CC1=O (configuration not stated)
6. COc1ccc(Cc2cnc(N)nc2N)cc1OC
7. CCC(C)(Oc1ccc(C2(c3ccc(OC(C)(CC)C(=O)O)cc3)CCCCC2)cc1)C(=O)O (configuration not stated) [clinofibrate]

stdout:
-3.87
-0.22
0.86
0.39
2.12
-0.86
-1.92

Answer for every listed entry: what is its inhibition of SARS-CoV-2 cytopathic effect? The entries follow.
1. CSC[C@H](N)C(=O)O
2. CNC(=O)c1cc(COc2nnc(Nc3ccc(Cl)cc3)c3ccoc23)ccn1
3. O=C(NNc1ccccc1)c1ccncc1
4. CC(C)c1onc(-c2c(Cl)cccc2Cl)c1COc1ccc(/C=C/c2cccc(C(=O)O)c2)c(Cl)c1
5. O=C(Nc1cnc(Cl)nc1)c1ccc(F)c(F)c1
6. COc1cc(N)c(Cl)cc1C(=O)NC1CN2CCC1CC2 (configuration not stated) [zacopride]

stdout:
1. 1.96
2. -1.3
3. 1.76
4. -0.17
5. 2.59
6. -1.28

stdin: Tell me inhibition of SARS-CoV-2 cytopathic effect reported for "CC(C)N(CCCCOCC(=O)NS(C)(=O)=O)c1cnc(-c2ccccc2)c(-c2ccccc2)n1"
stdout: -0.43
